target-entity: T1, His-tagged mature protein disulfide-isomerase (PDI) (human, UniProt P07237 18-508)
T1 construct: protein disulfide-isomerase (PDI), human, mature protein, domains a, b, b', a'; calculated mass of the construct 56379 Da; Treated with 1 mM DTT before ITC and in the BLI assays with the β-hairpin
T1 sequence (P07237 18-508): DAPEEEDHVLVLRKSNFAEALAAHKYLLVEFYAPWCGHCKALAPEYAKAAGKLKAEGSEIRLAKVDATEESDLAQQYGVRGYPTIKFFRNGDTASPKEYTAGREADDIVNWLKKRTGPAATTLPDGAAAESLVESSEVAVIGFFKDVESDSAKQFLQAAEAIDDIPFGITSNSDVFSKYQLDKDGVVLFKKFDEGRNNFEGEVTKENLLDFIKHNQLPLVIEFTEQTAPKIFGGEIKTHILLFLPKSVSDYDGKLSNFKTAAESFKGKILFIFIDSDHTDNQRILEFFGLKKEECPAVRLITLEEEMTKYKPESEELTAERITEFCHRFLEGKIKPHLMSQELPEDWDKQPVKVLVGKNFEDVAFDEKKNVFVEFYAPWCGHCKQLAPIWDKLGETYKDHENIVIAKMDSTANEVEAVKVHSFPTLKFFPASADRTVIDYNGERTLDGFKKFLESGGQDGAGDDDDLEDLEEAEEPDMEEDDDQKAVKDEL
assay-protocol: BLI; biotin-labeled β-hairpin of Ero1α immobilised on SA biosensors; PDI at 0, 0.5, 1.0, 2.0, 4.0 μM; 30 °C; 20 mM sodium phosphate, pH 7.0, 300 mM NaCl, 1 mM DTT; 1:1 model
run-conditions: both partners purified
pKd: −log10 of the molar value. Ends that are not written are not given here. * marks the point of attachment. Biotin = O=C1N[C@H]2[C@H](CS[C@H]2CCCCC(=O)*)N1

binder	pKd
Biotin-RYLLQETWLEKKWGH (protruding β-hairpin of human ER oxidoreductin 1 alpha (Ero1α), with a tryptophan at the tip (Trp272); also called β-hairpin loop of Ero1α; source: synthetic peptide, synthesized by GenScript) [β-hairpin of Ero1α (RYLLQETWLEKKWGH) with an N-terminal biotin label]	5.40

Just for reference, paper PMC7324491 is where these values come from.
